Numbers sourced from patent US20250361295A1.

target: T1, human LILRB4 (human, UniProt Q8NHJ6 22-448); experiment: FACS, 293F-hLILRB4 cells
T1 construct: whole, on cells; also called hLILRB4
// MFI lookup, one value per entry
Lab book: enter the figure in MFI, no units written.

Ask | I have this binder here, 43-D12-F3-G11 (antibody, V domains shown, mouse monoclonal hybridoma antibody) VH: EVQVVESGPGLVAPSQSLSITCTVSGFSLTSYGVSWVRQPPGKGLEWLGVIWADGSTNYHSALLSRLSISKDNSKSQVFLKLNSLQTDDTATYYCAKGHWDGFAYWGQGTLVAVSA VL: DIVLTQSPAIMSTSPGEKVTLTCSASSSITSSYLYWYQQKPGSSPKLWIYSTSNLASGVPARFSGSGSGTSYYLTISSMEAEDAASYFCHQWSSYPPTFGGGTKLELK , and I need its recorded MFI.
Reply | 727

Ask | And for 27-D11-C2-A10 (antibody, V domains shown, mouse monoclonal hybridoma antibody) VH: EVQLVESGGGLVQPGGSRKLSCAASGFTFSVFGVHWVRQAPEKGLEWVAYISSGSNTIHYADTVKGRFTISRDIPKNTLFLQMTSLRSEDTAMYYCARSSGTGAMDYWGQGTSVTVSS VL: DIQMTQSTSSLSASLGDRVSISCRASQDISNYLNWYQQKPDGAVKLLIYYTSRLHSGVPSRFSGSGSGTDYSLTISNLDQEDIATYFCQQGNTLPWTFGGGTKLELK ?
Reply | 588

Ask | And for 26-H9-B9-B7 (antibody, V domains shown, mouse monoclonal hybridoma antibody) VH: EVQRVESGGGLVQPGGSRKLSCAASGFTFSSFGMHWVRQAPEKGLEWVAYISSGSSTIYYADTVKGRFTISRDNPKNTLFLQMTSLRSEDTAMYYCARSDGKGAMDYWGQGTSVTVSS VL: DIVMTQSTSSLSASLGDRVTISCRASQDISNYLNWYQQKPDGTVKLLIYYTSRLHSGVPSRFSGSGSGTDYSLTISNLEQEDIATYFCQQGNTLPWTFGGGTKLEIK ?
Reply | 441
